# EXPERIMENT_NOTES: viability loss in pontine glioma line – cell-based, JHH-DIPG-1, MIPE4.0, CellTiter-Glo, qHTS, dose response (AID 1347062);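 for AC50: cells exposed to compound for two days before readout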
# EXPERIMENTAL_CONTEXT: JHH-DIPG-1 viability, CellTiter-Glo ATP luminescence
Results filed as inconclusive are left out. Activity calls are given as the source filed them. No cut-off is given here; in the data, nearly all actives have AC50 up to about 27 µM.
ASSAY_ENDPOINT: AC50

Answered cases to consult:
COMPOUND | AC50
Cc1ccc(NC(=O)c2cccc(C(C)(C)C#N)c2)cc1Nc1ccc2ncn(C)c(=O)c2c1 | 5.9 µM (active)
CCCCOCCOc1nc(-c2ccc(C(=O)O)c(F)c2)sc1C | inactive
Nc1ncnc2c1c(-c1cnc3[nH]ccc3c1)nn2C1CCCC1 | 6.62 µM (active)
CNC(=O)c1ccc(-c2cnc3ncc(Cc4ccc5ncccc5c4)n3n2)cc1F | inactive
CCN(CC)Cc1ccc2cc(COC(=O)Nc3ccc(C(=O)NO)cc3)ccc2c1 | 2.64 µM (active)

Asked: Please indicate AC50 recorded for `OC[C@H]1O[C@@H](OCCc2ccc(O)cc2)[C@H](O)[C@@H](O)[C@@H]1O`
Given back: inactive

Asked: Please indicate AC50 recorded for `CN(C)C1CCN(C(=O)c2ccc(NC(=O)Nc3nc(N4CCOCC4)nc(N4CCOCC4)n3)cc2)CC1`
Given back: 0.166 µM (active)

Asked: Please indicate AC50 recorded for `O=C1NC(=O)/C(=C/c2ccc3nccc(-c4ccncc4)c3c2)S1`
Given back: 1.05 µM (active)

Asked: Please indicate AC50 recorded for `COc1cc2c(cc1-c1c(C)noc1C)ncc1[nH]c(=O)n([C@H](C)c3ccccn3)c12`
Given back: 23.5 µM (active)

Asked: Please indicate AC50 recorded for `CC(=O)Nc1cccc(-n2c(=O)n(C3CC3)c(=O)c3c(Nc4ccc(I)cc4F)n(C)c(=O)c(C)c32)c1`
Given back: 0.209 µM (active)

* * *

# Tested on: Aerobactin synthetase IucA (Klebsiella pneumoniae)
# EXPERIMENT_NOTES: inhibition of K. pneumoniae IucA enzyme – biochemical, Tocris library, absorbance (AID 1345561);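 note: 100% = enzyme without compound and 0% = no enzyme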
# EXPERIMENTAL_CONTEXT: purified IucA enzyme assay, absorbance (OD) read-out; stronger effect = lower value; concentration not given here
ASSAY_ENDPOINT: remaining activity (%)
Write the number in % without appending the unit.

Answered cases to consult:
COMPOUND | TARGET_OR_SYSTEM | MEASUREMENT
c1ccc2nc(C3=NCCN3)cnc2c1 | Aerobactin synthetase IucA (Klebsiella pneumoniae) | 98.4
COc1cc2c(cc1C(F)(F)F)N(C(=O)Nc1cc(F)cc(-c3cccnc3)c1)CC2 | Aerobactin synthetase IucA (Klebsiella pneumoniae) | 97.1
C=CCNC(=O)c1cc([N+](=O)[O-])cc2c(=O)[nH]c(Nc3ccc(Cl)c(Cl)c3)nc12 | Aerobactin synthetase IucA (Klebsiella pneumoniae) | 116

Asked: Please indicate remaining activity recorded for `CCC(=O)OCN1C(=O)C=CC1=O`
Given back: 92.2

Asked: Please indicate remaining activity recorded for `COC(=O)c1ccccc1NC(=O)c1ccc(F)cc1`
Given back: 99.3

Asked: Please indicate remaining activity recorded for Cc1cc(C(=O)O)sc1C(N)C(=O)O (stereo unspecified)
Given back: 83.4

* * *

# EXPERIMENT_NOTES: viability loss with induced miR-34 in A549 – imaging, A549 dox-inducible miR-34, nuclei and caspase counts, primary screen (AID 1347080)
# EXPERIMENTAL_CONTEXT: A549 miR-34 inducible, Hoechst nuclei count, 48 h; measured here: relative caspase fold change +Dox/-Dox
fold change by entry:
The response must contain the number and no unit.

COMPOUND | ASSAY_ENDPOINT | MEASUREMENT
C=C[C@H]1CN2CCC1C[C@@H]2C(O)c1ccnc2ccc(OC)cc12 (some centres undefined) | fold change | 0.977
O=C(Nc1nc2cccc(-c3ccc(CN4CCS(=O)(=O)CC4)cc3)n2n1)C1CC1 | fold change | 0.426
Cn1cnc(=N)c2[nH]cnc21 | fold change | 0.712

Proceeding to the next compound to report its fold change.
Asked: Please indicate fold change recorded for `CC(C)OC(=O)CCC/C=C\C[C@@H]1[C@@H](/C=C/C(=O)COc2cccc(C(F)(F)F)c2)[C@H](O)C[C@@H]1O`
Given back: 1.05

* * *

# EXPERIMENT_NOTES: growth inhibition, single agent and combos, cell-based, chromothripsis tumors, cisplatin or BGB combos (AID 1671450);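 note: cells exposed to compound for four days; 0% = vehicle DMSO and 100% = cell killing by high DMSO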
# EXPERIMENTAL_CONTEXT: HDN33 neuroblastoma cells, single agent, at 5 µM, stronger effect = higher value
ASSAY_ENDPOINT: inhibition
Write your answer as a measured quantity: the number, then the unit.

Answered cases to consult:
MOLECULE_SMILES | MEASUREMENT
O=C(O)[C@H](Cc1c[nH]c2ccccc12)N1C(=O)c2ccccc2C1=O | -17%
CCCCc1nc2cc(/C=C/C(=O)NO)ccc2n1CCN(CC)CC | 99.8%
Nc1nc2n[nH]nc2c(=O)[nH]1 | 42.1%
CC(=O)[C@]1(N)Cc2c(O)c3c(c(O)c2[C@@H](O[C@H]2C[C@H](O)[C@H](O)CO2)C1)C(=O)c1ccccc1C3=O | 98.2%
COc1cc(C=O)c([N+](=O)[O-])cc1OC | 0.626%

Asked: Please indicate inhibition recorded for `Cc1[nH]c2ccccc2c1CCNCc1ccc(/C=C/C(=O)NO)cc1`
Given back: 99.9%

* * *

# EXPERIMENT_NOTES: viability loss in pontine glioma line – cell-based, SU-DIPG-XXV, MIPE5.0, CellTiter-Glo, qHTS, dose response (AID 1347065);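 note: cells exposed to compound for 48 hours before ATP readout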
# EXPERIMENTAL_CONTEXT: CellTiter-Glo ATP luminescence
Inconclusive results are not listed. Active and inactive are the calls of the source. The limit is not given here; nearly all actives have AC50 up to about 26 µM.
Choose one outcome from this list and give only that: active, inactive

Known results for compounds:
MOLECULE_SMILES | ASSIGNED_LABEL
CN(C)C/C=C/C(=O)Nc1ccc(C(=O)Nc2cccc(Nc3ncc(Cl)c(-c4c[nH]c5ccccc45)n3)c2)cc1 | active
O=C(O)CCCc1c[nH]c2ccccc12 | inactive

Moving on to another compound below.
Asked: Which outcome did this test record for the compound `CNC(=O)c1ccc(Nc2ncc(C(F)(F)F)c(NCc3nccnc3N(C)S(C)(=O)=O)n2)cc1` ?
Given back: active

* * *

# EXPERIMENT_NOTES: viability loss in pontine glioma line – cell-based, SU-DIPG-XXV, MIPE5.0, CellTiter-Glo, qHTS, dose response (AID 1347065);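 note: cells exposed to compound for 48 hours before ATP readout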
# EXPERIMENTAL_CONTEXT: CellTiter-Glo ATP luminescence
Results filed as inconclusive are left out. Active and inactive are the calls of the source. The limit is not given here; nearly all actives have AC50 up to about 26 µM.
ASSAY_ENDPOINT: AC50

Answered cases to consult:
COMPOUND | AC50
C#CC[C@H](c1nc2cc(Cl)ccc2c(=O)n1Nc1ccccc1)N(CCCN)C(=O)c1cccc(Cl)c1F | 0.372 µM (active)
CN1CCc2c(n(Cc3ccc(C(=O)NO)cc3)c3ccccc23)C1 | 18.6 µM (active)
O=C(O)c1ccc2c(c1)nc(Nc1cccc(Cl)c1)c1ccncc12 | 4.68 µM (active)
CC1(C)O[C@@H]2C[C@H]3[C@@H]4CCC5=CC(=O)C=C[C@]5(C)[C@H]4[C@@H](O)C[C@]3(C)[C@]2(C(=O)CO)O1 | inactive
C=CC(=O)N1CCC(Oc2cc3c(Nc4ccc(Cl)c(Cl)c4F)ncnc3cc2OC)CC1 | 3.32 µM (active)
Cc1ccc(C(=O)N(CCCN)[C@@H](c2nc3cc(Cl)ccc3c(=O)n2Cc2ccccc2)C(C)C)cc1 | 0.00934 µM (active)
COc1ccc(C(=O)CC2(O)C(=O)Nc3c(Cl)ccc(Cl)c32)cc1 (configuration not stated) | 4.17 µM (active)
CCOc1ccn(-c2ccc(F)cc2)c(=O)c1C(=O)Nc1ccc(Oc2ccnc(N)c2Cl)c(F)c1 | 11.8 µM (active)
CN1CCN(c2ccc3nc(-c4c(N)c5c(F)cccc5[nH]c4=O)[nH]c3c2)CC1 | 0.468 µM (active)
COC1CCN(C(=O)c2cc(Cc3n[nH]c(=O)c4ccccc34)ccc2F)CC1 | inactive

Asked: Please indicate AC50 recorded for `CCOC(=O)[C@@H](N)Cc1ccc(-c2cc(O[C@H](c3ccc(Cl)cc3-n3ccc(C)n3)C(F)(F)F)nc(N)n2)cc1`
Given back: 13.2 µM (active)

Asked: Please indicate AC50 recorded for `COc1ccccc1[C@H](c1cccc2ccccc12)[C@@](C)(C#N)C(=O)N1CCC(c2cccc(C(F)(F)F)c2)CC1`
Given back: inactive

* * *

# EXPERIMENT_NOTES: drug combination growth inhibition, ovarian cancer – cell-based, oncology-focused library, rucaparib conditional, profiling panel (AID 1508598)
# EXPERIMENTAL_CONTEXT: patient-derived ovarian cancer cells, CellTiter-Glo viability, 144 h; at 0.000305 µM; OCI-P5x cells; with rucaparib 20 µM; 100% = cells with rucaparib alone
Activity calls are given as the source filed them.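 The calls were made as follows: active = normalized viability below 100% at a tested concentration; inactive = the rest.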
Choose one outcome from this list and give only that: active, inactive

MOLECULE_SMILES | ASSIGNED_LABEL
CC(C)n1nc(-c2ccc3oc(N)nc3c2)c2c(N)ncnc21 | active
O=c1cc(N2CCOCC2)oc2c(-c3cccc4c3sc3ccccc34)cccc12 | inactive
CCN1CCN(Cc2ccc(-c3cc4c(N[C@H](C)c5ccccc5)ncnc4[nH]3)cc2)CC1 | active
Cc1ccc(NC(=O)c2cccc(C(C)(C)C#N)c2)cc1Nc1ccc2ncn(C)c(=O)c2c1 | active

Moving on to another compound below.
Asked: Which outcome did this test record for the compound `C=C(c1ccc(C(=O)O)cc1)c1cc2c(cc1C)C(C)(C)CCC2(C)C` ?
Given back: active

src = PubChem BioAssay
